Method Description: self-splicing fitness, log relative to wild type (ln ratio); higher = more splicing; Tetrahymena group I intron in knt gene, E. coli kanamycin selection, DiMSum; sequences stand for … in CUCUCU…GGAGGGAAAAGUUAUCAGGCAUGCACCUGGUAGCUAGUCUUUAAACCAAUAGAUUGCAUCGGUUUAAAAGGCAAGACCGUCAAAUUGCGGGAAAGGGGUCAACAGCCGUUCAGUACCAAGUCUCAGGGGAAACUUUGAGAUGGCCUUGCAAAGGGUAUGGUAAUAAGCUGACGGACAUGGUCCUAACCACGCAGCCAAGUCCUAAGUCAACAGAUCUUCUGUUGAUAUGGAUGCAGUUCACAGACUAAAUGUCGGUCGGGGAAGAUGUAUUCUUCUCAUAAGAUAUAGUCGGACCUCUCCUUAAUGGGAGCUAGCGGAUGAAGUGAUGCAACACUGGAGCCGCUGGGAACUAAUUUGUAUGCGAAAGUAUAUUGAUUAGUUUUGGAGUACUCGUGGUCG;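 further: selection with 25 µg/mL kanamycin versus none on LB agar overnight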
Condition Label: 30 °C
Decision: self-splicing fitness (ln) compared against -3; not below it gives MET, below it gives NOT MET.

[[record]]
seq_text = "UCUGAGCAAUAUUACGCCCG"
assigned_category = "MET"

[[record]]
seq_text = "AGUCAGCAAUAUUACGAGUC"
assigned_category = "MET"

[[record]]
seq_text = "GUCGAGCAAUAUUACGUGCG"
assigned_category = "MET"

[[record]]
seq_text = "AAUAAGCAAUAUUACGUGGA"
assigned_category = "NOT MET"


Does ACAAAGCAAUAUUACGGAGA have a reported self-splicing fitness (ln) of at least -3? NOT MET

Please tell me: is the sequence CACCAGCAAUAUUACGGGUU at or over -3 in terms of self-splicing fitness (ln)? MET

Evaluate AGUAAGCAAUAUUACGUGGU : self-splicing fitness (ln) at minimum -3? NOT MET

Please check the record GGCAAGCAAUAUUACGAUCC and state if its self-splicing fitness (ln) is at or above -3. MET

Exam item: decide whether the reported self-splicing fitness (ln) for UAGCAGCAAUAUUACGUACG is at least -3. MET

Determine whether this sequence has self-splicing fitness (ln) no lower than -3: GGCCAGCAAUAUUACGCACU MET

Does self-splicing fitness (ln) meet or surpass -3 for GUCAAGCAAUAUUACGUAAC ? MET

Does self-splicing fitness (ln) meet or surpass -3 for CAUCAGCAAUAUUACGCUUA ? MET

Is reported self-splicing fitness (ln) greater than or equal to -3 here: UGCAAGCAAUAUUACGACCG MET

---

Method Description: self-splicing fitness, log relative to wild type (ln ratio); higher = more splicing; Tetrahymena group I intron in knt gene, E. coli kanamycin selection, DiMSum; sequences stand for … in CUCUCU…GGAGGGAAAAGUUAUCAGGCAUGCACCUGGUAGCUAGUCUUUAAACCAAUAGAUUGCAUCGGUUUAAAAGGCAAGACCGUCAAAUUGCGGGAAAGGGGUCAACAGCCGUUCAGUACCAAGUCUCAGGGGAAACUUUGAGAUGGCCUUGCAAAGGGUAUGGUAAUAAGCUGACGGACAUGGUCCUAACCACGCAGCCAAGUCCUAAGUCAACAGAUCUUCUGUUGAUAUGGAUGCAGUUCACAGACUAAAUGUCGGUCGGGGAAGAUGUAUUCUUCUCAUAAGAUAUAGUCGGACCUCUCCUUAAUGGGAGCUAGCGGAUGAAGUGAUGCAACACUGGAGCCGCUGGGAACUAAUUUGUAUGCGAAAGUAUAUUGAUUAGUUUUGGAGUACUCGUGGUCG
Condition Label: 30 °C
Value Kind: self-splicing fitness (ln)

[[record]]
seq_text = "UGUUAGCAAUAUUACGGUAG"
value_kind = "self-splicing fitness (ln)"
observed = -0.65

[[record]]
seq_text = "CAUCAGCAAUAUUACGCUAC"
value_kind = "self-splicing fitness (ln)"
observed = -3.62

[[record]]
seq_text = "CGGUAGCAAUAUUACGUUUA"
value_kind = "self-splicing fitness (ln)"
observed = -3.46

[[record]]
seq_text = "GCUUAGCAAUAUUACGCCUU"
value_kind = "self-splicing fitness (ln)"
observed = -2.7

[[record]]
seq_text = "UCUCAGCAAUAUUACGCUCU"
value_kind = "self-splicing fitness (ln)"
observed = -3.26


For every item below, please supply its self-splicing fitness (ln).
1. GCAAAGCAAUAUUACGUGAU
2. GAACAGCAAUAUUACGGUAA
3. GUAGAGCAAUAUUACGGUAA

[-0.863, -1.2, -1.74]

Look at each sequence and report its self-splicing fitness (ln).
1. AUUAAGCAAUAUUACGUUUA
2. ACUGAGCAAUAUUACGGUAU
3. CAUCAGCAAUAUUACGAAGU
4. GGAGAGCAAUAUUACGAUCG

-1.61
-3.55
-3.41
-1.88

Below is a list of sequences. For each, state its recorded self-splicing fitness (ln).
1. AUGCAGCAAUAUUACGAGCU
2. GAUAAGCAAUAUUACGACUA
3. CGCAAGCAAUAUUACGGAAA
4. ACUGAGCAAUAUUACGCGUU
5. CUUAAGCAAUAUUACGUGAG
6. CAAAAGCAAUAUUACGGAUG
7. UUAGAGCAAUAUUACGGAUG
8. CCCAAGCAAUAUUACGAAUU

[-0.624, -0.184, -2.31, -3.38, -3.73, -2.76, -3.13, -3.33]

// provenance: the supplement of paper PMC7877785
